# Assay target: recombinant IRAK-4 kinase (Homo sapiens, UniProt Q9NWZ3)
# Construct: purchased Millipore, USA
# Sequence (Q9NWZ3 whole entry): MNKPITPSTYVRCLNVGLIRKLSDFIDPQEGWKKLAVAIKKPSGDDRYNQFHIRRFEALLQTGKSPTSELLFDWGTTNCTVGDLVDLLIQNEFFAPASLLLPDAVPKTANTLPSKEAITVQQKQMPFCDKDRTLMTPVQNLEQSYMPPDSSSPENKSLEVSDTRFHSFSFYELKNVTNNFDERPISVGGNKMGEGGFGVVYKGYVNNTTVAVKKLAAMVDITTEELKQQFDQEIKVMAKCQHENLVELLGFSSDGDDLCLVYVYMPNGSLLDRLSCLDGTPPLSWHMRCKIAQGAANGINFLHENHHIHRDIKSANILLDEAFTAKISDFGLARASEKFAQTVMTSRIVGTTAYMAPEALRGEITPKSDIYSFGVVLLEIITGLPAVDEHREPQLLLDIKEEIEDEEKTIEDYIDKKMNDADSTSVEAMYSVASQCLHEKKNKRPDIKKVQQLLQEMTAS
# Assay remarks: IRAK-4 Biochemical Assay (TR-FRET, percent inhibition)
# Condition notes: read-out: % inhibition of IRAK-4 @0.1 μM, compound at 0.1 μM; TR-FRET, 20 μM ATP, 100 nM Biotin Histone H3
Where a name gives a salt, the structure may show the parent alone.
Recorded endpoint: inhibition at 0.1 µM (%)

>  <Compound>
Cc1cc(-c2c[nH]c(C(=O)Nc3cc4sc(N5CCOCC5)nc4nc3N3CC[C@@H](O)C3)n2)ccn1 [Example 72, 2,2,2-trifluoroacetate]

>  <inhibition at 0.1 µM (%)>
98

$$$$
>  <Compound>
Nc1cc(-c2cccc(C(=O)Nc3cc4sc(N5CCOCC5)nc4nc3C3CC3)n2)ccn1

>  <inhibition at 0.1 µM (%)>
95

$$$$
>  <Compound>
Cc1cc(-c2ccc(C(=O)Nc3cc4sc(N5CCOCC5)nc4nc3N3CCCC(O)(CO)C3)o2)ccn1 (stereo not shown) [Example 5, hydrochloride]

>  <inhibition at 0.1 µM (%)>
98

$$$$
>  <Compound>
Nc1ccc(-c2cccc(C(=O)Nc3cc4oc(N5CCOCC5)nc4nc3N3CC[C@@H](O)C3)n2)cn1 [Example 90, hydrochloride]

>  <inhibition at 0.1 µM (%)>
87

$$$$
>  <Compound>
Cc1cc(-c2c[nH]c(C(=O)Nc3cc4sc(N5CCOCC5)nc4nc3N3CC[C@@H](O)C3)c2)ccn1

>  <inhibition at 0.1 µM (%)>
69

$$$$
>  <Compound>
O=C(Nc1cc2oc(N3CCOCC3)nc2nc1C1CC1)c1cnn2cccnc12 [Example 107, hydrochloride]

>  <inhibition at 0.1 µM (%)>
57

$$$$
>  <Compound>
CCOC(=O)O[C@H]1CCN(c2cccc(C(=O)Nc3cc4sc(N5CCOCC5)nc4nc3N3CCCCC3)n2)C1

>  <inhibition at 0.1 µM (%)>
71

$$$$

====

# Assay target: recombinant IRAK-4 kinase (Homo sapiens, UniProt Q9NWZ3)
# Construct: purchased Millipore, USA
# Assay remarks: IRAK-4 Biochemical Assay (TR-FRET, percent inhibition)
# Condition notes: read-out: % inhibition of IRAK-4 @0.1 μM, compound at 0.1 μM; TR-FRET, 20 μM ATP, 100 nM Biotin Histone H3
Counter-ions that a name gives are not always drawn.
Recorded endpoint: inhibition at 0.1 µM (%)

Completed entries (count: 6):
>  <Compound>
NCC(=O)OC1CCN(c2cccc(C(=O)Nc3cc4sc(N5CCOCC5)nc4nc3N3CCCCC3)n2)CC1

>  <Unit symbol>
%

>  <inhibition at 0.1 µM>
90

$$$$
>  <Compound>
O=C(Nc1cc2sc(N3CCOCC3)nc2nc1N1CCCCC1)c1cncc(N2CC[C@H](O)C2)n1

>  <Unit symbol>
%

>  <inhibition at 0.1 µM>
95

$$$$
>  <Compound>
O=C(Nc1cc2sc(N3CCOCC3)nc2nc1C(F)(F)F)c1cccc(N2CCC(O)C2)n1 (stereo not shown)

>  <Unit symbol>
%

>  <inhibition at 0.1 µM>
90

$$$$
>  <Compound>
Nc1cc(-c2cccc(C(=O)Nc3cc4sc(N5CCOCC5)nc4nc3N3CCCCC3)n2)ccn1

>  <Unit symbol>
%

>  <inhibition at 0.1 µM>
99

$$$$
>  <Compound>
Cc1nc2nc(N3CCOCC3)sc2cc1NC(=O)c1cccc(N2CCC(O)C2)n1 (stereo not shown)

>  <Unit symbol>
%

>  <inhibition at 0.1 µM>
50

$$$$
>  <Compound>
O=C(Nc1cc2sc(N3CCOCC3)nc2nc1N1CCCCC1)c1cccc(NCC2CCOCC2)n1

>  <Unit symbol>
%

>  <inhibition at 0.1 µM>
75

$$$$

I: O=C(Nc1cc2sc(N3CCOCC3)nc2nc1N1CCCCC1)c1cncc(N2CCC(O)C2)n1 (stereo not shown) [Example 54, hydrochloride]
II: Cc1cc(-c2nc(C(=O)Nc3cc4oc(N5CCOCC5)nc4nc3N3CC(C)(C)CC3=O)co2)ccn1
Enquiry: Would you kindly point out which of I and II has the smaller inhibition at 0.1 µM figure? Mark your selection by writing its label.
Return: II

Source listed as patent US20180208605A1.
